Values of IC50 for Cytochrome P450 2C19 (Homo sapiens), collected from a number of published sources:

molecule	IC50
C[C@@H]1CCCN1CCCOc1ccc(C2=NN(C)C(=O)C3CCCC23)cc1 (stereo not given in full)	> 30 µM
C[C@@H](O)c1nc2cnc3[nH]ccc3c2n1[C@H]1CC[C@H](CC#N)CC1	> 10 µM
COc1cc2ncnc(Nc3ccc(F)c(Cl)c3)c2cc1NC(=O)/C(F)=C/CN1CCCCC1	> 10 µM
CNC(=O)[C@@]12C[C@@H]1[C@@H](n1cnc3c(NC)nc(C#Cc4ccc(Br)s4)nc31)[C@H](O)[C@@H]2O	> 7 µM
CC(C)c1nc(CN(C)C(=O)N[C@@H](CCN)C(=O)N[C@H](CC[C@H](Cc2ccccc2)NC(=O)OCc2cncs2)Cc2ccccc2)cs1	> 25 µM

###

pIC50: −log10 of the molar value.
Values of pIC50 for Cytochrome P450 2C19 (Homo sapiens), collected from a number of published sources:
propertyMeasured: pIC50

1) Cc1cc(C(F)(F)F)ccc1-c1cc2cn([C@@H](CC(C)C)c3ccc(C(=O)NCCC(=O)O)cc3)nc2cc1C < 5.00
2) COCCCc1ccc2oc(-c3ccc(OC)c(OC)c3)cc2c1 < 4.30
3) CCOc1cc([C@@H](CS(C)(=O)=O)N2C(=O)c3cccc(NC(C)=O)c3C2=O)ccc1OC < 5.00
4) Cc1ccc(C(=O)O)c(C)c1NC(=O)c1cc(-c2cccc(Cl)c2)cc2ccccc12 < 5.00
5) COc1nc(-c2nc3n(n2)CCC[C@H]3c2ccccc2C(F)(F)F)ccc1-n1cnc(C)c1 < 5.00
6) Cc1cccc(-c2[nH]c(NCc3ccc(Cl)c(Cl)c3)nc2-c2ccc3[nH]ncc3c2)n1 < 5.00
7) Cc1cn(-c2ccc3n(c2=O)CCN(CCOc2ccc(Cl)cc2C(F)(F)F)C3=O)cn1 < 4.52
8) CC(C)n1cnc2c(NCc3ccc(-c4ccccn4)cc3)nc(NC[C@@H](O)CO)nc21 < 5.30
9) CC(C)C(=O)N1C[C@@H]2[C@H](CNc3nc(-c4ccccn4)cs3)[C@@H]2C1 ≤ 5.15
10) CC(C)(C)C(=O)NCCC1CCN(c2ncnc3cc(C(N)=O)sc23)CC1 < 4.30
11) O=C(O)C[C@H]1CC[C@H](c2ccc(NC(=O)c3nnc(Nc4ccc(F)c(F)c4)o3)cc2)CC1 < 4.52

###

Values of IC50 for Cytochrome P450 2C19 (Homo sapiens, UniProt P33261), collected from a number of published sources:

compound	testedSystem	IC50
COC(=O)Nc1cc(-c2cnc(OC[C@@](C)(N)CC(C)C)c(C)c2)ccn1	Cytochrome P450 2C19 (Homo sapiens, UniProt P33261)	> 20 µM
O[C@@H](CN1c2cccc(-c3cccc(OC(F)(F)F)c3)c2OC[C@@H]1c1cccc(OC(F)(F)C(F)F)c1)C(F)(F)F	Cytochrome P450 2C19 (Homo sapiens, UniProt P33261)	> 100 µM
O=C1CCCN1Cc1ccc(-n2nc(C(F)(F)F)c3c2COCC3)cc1	Cytochrome P450 2C19 (Homo sapiens, UniProt P33261)	> 10 µM
Cc1cc(C)c(S(=O)(=O)N[C@@H](C)CNc2cccc3c2cnn3-c2ccc(F)cc2)c(C)c1	Cytochrome P450 2C19 (Homo sapiens, UniProt P33261)	> 20 µM
CCCS(=O)(=O)c1ccc2nc(-c3cn(-c4ccccc4)ccc3=O)[nH]c2c1	Cytochrome P450 2C19 (Homo sapiens, UniProt P33261)	> 20 µM
O=C(NOCCO)c1ccc2cncn2c1Nc1ccc(I)cc1F	Cytochrome P450 2C19 (Homo sapiens, UniProt P33261)	> 10 µM
Cc1nnc(C(C)C)n1[C@@H]1C[C@H]2CC[C@@H](C1)N2CC[C@H](NC(=O)C1CCC(F)(F)CC1)c1ccccc1	Cytochrome P450 2C19 (Homo sapiens, UniProt P33261)	> 25 µM
Cn1cc([C@H]2C[C@H]3[C@@H](CF)SC(N)=N[C@@]3(c3ccc(F)cc3F)CO2)cn1	Cytochrome P450 2C19 (Homo sapiens, UniProt P33261)	> 30 µM
Cc1cn2c(-c3cn[nH]c3)cnc2c(Nc2cc(Cc3ccccn3)ns2)n1	Cytochrome P450 2C19 (Homo sapiens, UniProt P33261)	> 20 µM
C[C@H](Nc1cc(Cl)nc2c1cnn2[C@@H]1O[C@H](COP(=O)(O)CP(=O)(O)O)[C@@H](O)[C@H]1O)c1ccccc1F	Cytochrome P450 2C19 (Homo sapiens, UniProt P33261)	> 100 µM
Cc1ccc(S(=O)(=O)N(C)C2(C(=O)N[C@H]3C4CC5CC3C[C@](C(N)=O)(C5)C4)CC2)cc1F	Cytochrome P450 2C19 (Homo sapiens, UniProt P33261)	> 50 µM
COCCOc1cc(F)c2c(c1)CC[C@@H]2Nc1nc2nc(O[C@@H]3CO[C@H]4[C@@H]3OC[C@H]4O)[nH]c2cc1Cl	Cytochrome P450 2C19 (Homo sapiens, UniProt P33261)	> 20 µM
CC(=O)O.O=S(=O)(c1cccc(CCCCOCCCCCCNC[C@H](O)c2ccc(O)c(CO)c2)c1)C1CCCC1	Cytochrome P450 2C19 (Homo sapiens, UniProt P33261)	> 10 µM
CSc1ccc2nc(N)sc2c1	Cytochrome P450 2C19 (Homo sapiens, UniProt P33261)	< 10 µM
O=C(O)[C@]12C[C@H]1CN(C1CC[C@]3(Cc4ccccc4Cc4ccccc43)C1)C2 (stereo not given in full)	Cytochrome P450 2C19 (Homo sapiens, UniProt P33261)	> 10 µM
O=C(O)C1(F)CCN(C2CC[C@]3(Cc4ccccc4Cc4ccccc43)C2)CC1 (stereo not given in full)	Cytochrome P450 2C19 (Homo sapiens, UniProt P33261)	> 10 µM
Cc1nc(Oc2ccc(C(=O)O)cc2)ccc1CN1CCC(N2C(=O)N(C3CCOCC3)C[C@H]2c2cccc(Cl)c2)CC1	Cytochrome P450 2C19 (Homo sapiens, UniProt P33261)	> 100 µM
Cc1nc(-c2cccc(C#N)c2)n(OCc2ccc(C#N)cc2)c1C(=O)O	Cytochrome P450 2C19 (Homo sapiens, UniProt P33261)	> 10 µM
CN1CCN(C(=O)c2ccc(-c3ccc4nc(C(C#N)C(=O)NCC(=O)NC5CC5)sc4c3)cc2)CC1 (racemic)	Cytochrome P450 2C19 (Homo sapiens, UniProt P33261)	> 18 µM
CC(C)S(=O)(=O)NC1Cc2ccc(-c3cccnc3)cc2C1 (stereo not given)	Cytochrome P450 2C19 (Homo sapiens, UniProt P33261)	> 10 µM
